System Under Test: PKR WT (Homo sapiens)
Procedure Details: PKR WT enzymatic assay AC50
Assay type: biochemical
Run Conditions: wild type PKR
Procedure: • PKR or PKR mutant enzyme solution was diluted in assay buffer. • 2 μL of test compound was added into wells first, and then 180 μL reaction mix was added. • Reactions mixture with test compound was assembled except for ADP, and plates were stored for 60 minutes at room temperature. • 20 uL ADP was added to start reaction at room temperature and reaction progress was measured as changes in absorbance at 340 nm wavelength at room temperature. […]

Molecular String	System Under Test	AC50
O=C(c1ccc(NS(=O)(=O)c2cccc3cccnc23)cc1)N1CC(O)(c2ncccc2OC(F)F)C1	PKR WT (Homo sapiens)	0.101 to 1 µM
O=C(c1ccc(NS(=O)(=O)c2cccc3cccnc23)cc1)N1CC(O)(c2cccnc2F)C1	PKR WT (Homo sapiens)	0.101 to 1 µM
O=C(c1ccc(NS(=O)(=O)c2cccc3cccnc23)cc1)N1CC(O)(c2ncccc2Cl)C1	PKR WT (Homo sapiens)	1.01 to 10 µM
O=C(c1ccc(NS(=O)(=O)c2cccc3cccnc23)cc1)N1CC(O)(c2ccccc2C(F)(F)F)C1	PKR WT (Homo sapiens)	0.101 to 1 µM
O=C(c1ccc(NS(=O)(=O)c2cccc3cnccc23)cc1)N1CC(O)(Cc2ccccc2)C1	PKR WT (Homo sapiens)	> 10 µM
Cc1cc(F)ccc1C1(O)CN(C(=O)c2ccc(NS(=O)(=O)c3cccc4cccnc34)cc2)C1	PKR WT (Homo sapiens)	< 0.1 µM
O=C(c1ccc(NS(=O)(=O)c2cccc3cccnc23)cc1)N1CC(O)(Cc2ccccn2)C1	PKR WT (Homo sapiens)	0.101 to 1 µM

----------
System Under Test: PKR WT (Homo sapiens, UniProt P30613)
Sequence (P30613 whole entry): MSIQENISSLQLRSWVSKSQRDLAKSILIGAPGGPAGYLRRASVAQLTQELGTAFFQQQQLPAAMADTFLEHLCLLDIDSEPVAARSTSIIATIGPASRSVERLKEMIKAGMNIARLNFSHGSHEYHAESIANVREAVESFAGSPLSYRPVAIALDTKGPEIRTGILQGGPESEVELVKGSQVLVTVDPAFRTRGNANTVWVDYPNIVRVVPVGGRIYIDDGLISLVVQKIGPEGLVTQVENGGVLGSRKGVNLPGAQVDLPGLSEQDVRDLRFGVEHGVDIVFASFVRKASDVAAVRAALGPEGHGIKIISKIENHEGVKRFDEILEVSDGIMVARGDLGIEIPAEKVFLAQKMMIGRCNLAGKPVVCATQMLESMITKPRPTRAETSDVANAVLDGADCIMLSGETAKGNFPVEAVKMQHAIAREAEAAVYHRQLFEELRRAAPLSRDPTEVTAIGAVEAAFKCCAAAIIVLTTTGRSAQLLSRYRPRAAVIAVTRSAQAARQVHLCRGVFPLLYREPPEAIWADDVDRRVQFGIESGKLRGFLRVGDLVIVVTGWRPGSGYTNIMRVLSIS
Procedure Details: PKR WT enzymatic assay AC50
Assay type: biochemical
Run Conditions: wild type PKR
Reported values of AC50 for individual entries

Compound	System Under Test	AC50
O=C(c1ccc(NS(=O)(=O)c2ccc(F)cc2F)cc1)N1CC(O)(c2cccc(C(F)(F)F)c2)C1	PKR WT (Homo sapiens, UniProt P30613)	> 10000 nM
CC(O)C1(O)CN(C(=O)c2ccc(NS(=O)(=O)c3cccc4cccnc34)cc2)C1 (stereo not shown)	PKR WT (Homo sapiens, UniProt P30613)	> 10000 nM
Cc1ncccc1C1(O)CN(C(=O)c2ccc(NS(=O)(=O)c3cccc4cccnc34)cc2)C1	PKR WT (Homo sapiens, UniProt P30613)	101 to 1000 nM
CCc1ccccc1C1(O)CN(C(=O)c2ccc(NS(=O)(=O)c3cccc4cccnc34)cc2)C1	PKR WT (Homo sapiens, UniProt P30613)	< 100 nM
O=C(c1ccc(NS(=O)(=O)c2cccc3cccnc23)cc1)N1CC(O)(CCO)C1	PKR WT (Homo sapiens, UniProt P30613)	1010 to 10000 nM
O=C(c1ccc(NS(=O)(=O)c2cccc3cccnc23)cc1)N1CC(O)(c2ccc(F)cc2)C1	PKR WT (Homo sapiens, UniProt P30613)	101 to 1000 nM
O=C(c1ccc(NS(=O)(=O)c2cccc3cnccc23)cc1)N1CC(O)(c2cccc(C(F)(F)F)c2)C1	PKR WT (Homo sapiens, UniProt P30613)	1010 to 10000 nM
O=C(c1ccc(NS(=O)(=O)c2cccc3c2OCCO3)cc1)N1CC(O)(Cc2ccccc2)C1	PKR WT (Homo sapiens, UniProt P30613)	< 100 nM
O=C(c1ccc(NS(=O)(=O)c2cccc3ncccc23)cc1)N1CC(O)(c2cccc(C(F)(F)F)c2)C1	PKR WT (Homo sapiens, UniProt P30613)	1010 to 10000 nM
O=C(c1ccc(NS(=O)(=O)c2cccc3cccnc23)cc1)N1CC(O)(c2cccc(OC(F)(F)F)c2)C1	PKR WT (Homo sapiens, UniProt P30613)	< 100 nM
O=C(c1ccc(NS(=O)(=O)c2ccccc2Cl)cc1)N1CC(O)(Cc2ccccc2)C1	PKR WT (Homo sapiens, UniProt P30613)	1010 to 10000 nM
O=C(c1ccc(NS(=O)(=O)c2cccc3cccnc23)cc1)N1CC(O)(c2ccccc2F)C1	PKR WT (Homo sapiens, UniProt P30613)	101 to 1000 nM
CC(C)(C)C1(O)CN(C(=O)c2ccc(NS(=O)(=O)c3cccc4cccnc34)cc2)C1	PKR WT (Homo sapiens, UniProt P30613)	1010 to 10000 nM
CC(O)CC1(O)CN(C(=O)c2ccc(NS(=O)(=O)c3cccc4cccnc34)cc2)C1 (stereo not shown)	PKR WT (Homo sapiens, UniProt P30613)	1010 to 10000 nM
COc1ccccc1C1(O)CN(C(=O)c2ccc(NS(=O)(=O)c3cccc4cccnc34)cc2)C1	PKR WT (Homo sapiens, UniProt P30613)	< 100 nM
CC(C)CC1(O)CN(C(=O)c2ccc(NS(=O)(=O)c3cccc4cccnc34)cc2)C1	PKR WT (Homo sapiens, UniProt P30613)	101 to 1000 nM
